Test system: NCI-H460 lung
Classes used: active, inactive

COMPOUND | CAT
O=[N+]([O-])c1ccc(S(=O)Cc2ccccc2)c([N+](=O)[O-])c1 (stereo not drawn) | inactive
CC1(C)CC[C@H](Nc2ncc(C(F)(F)F)c(-c3c[nH]c4c(P(C)(C)=O)c(C#N)ccc34)n2)CN1 | active
COc1ccc2c(c1)C(=O)c1c-2n(CCCN=[N+]=[N-])c(=O)c2cc(N(C)C)ccc12 | inactive

* * *

System: XF 498 CNS
Test: NCI tumour cell line growth inhibition, 48 h

COMPOUND | TGI
CC1(C)C(=O)C(C)(C)C1=NN | > 100 µM
Cc1ccc(C(C)(C)C[P+](C)(c2ccccc2)c2ccccc2)cc1 | 12.9 µM
CCCNCCCC(NC(C)=O)C(=O)NCc1ccccc1 (stereo not given) | > 100 µM
CC(C)C1(O)C(c2ccccc2)=C(c2ccccc2)C(c2ccccc2)=C1c1ccccc1 | 14.2 µM
Oc1cc(O)c(Oc2cccc(O)c2O)c(O)c1 | > 100 µM
Nc1cccc2c1C(=O)c1cccc(N)c1C2=O | 69.4 µM
CS(=O)(=O)OCCN1CCN(C(=O)c2cccc3c(Nc4ccc(S(=O)(=O)N=C(N)N)cc4)c4ccccc4nc23)CC1 | > 100 µM
CC1OC(OCC2OC(Oc3c(-c4ccc(O)cc4)oc4cc(O)cc(O)c4c3=O)C(OC3OC(C)C(O)C(O)C3O)C(O)C2O)C(O)C(O)C1O (stereo not given) | > 100 µM
O=C(/C=C/c1ccccc1)CC1OC(=O)c2ccccc21 (stereo not given) | > 100 µM
C=C(CCCCCCCCC)CC(=O)SCCNC(=O)CCNC(=O)C(O)C(C)(C)COP(=O)(O)OP(=O)(O)OCC1OC(n2cnc3c(N)ncnc32)C(O)C1OP(=O)(O)O (stereo not given) | > 100 µM

// data source = PubChem BioAssay (NCI)
